- ASSAYED_TARGET: T1, CD38 (human, UniProt P28907 43-300, limits assumed)
- T1 construct: also called cluster of differentiation 38; cyclic ADP ribose hydrolase
- MEASUREMENT_DESCRIPTION: ELISA; larger values represent binding
Where no end group is shown, it is not given here. [ ]: non-standard residue; d: D form. Bip = N[C@@H](Cc1ccc(-c2ccccc2)cc1)C(=O)O; Ahp(2) = CCCCC[C@H](N)C(=O)O
Entries and their Binding Assay (ELISA signal) values follow.
Returns: the value as a bare number; no unit string appended.

Worked examples follow.
BINDER	MEAS_VALUE
AR[Ahp(2)]YHDGVL[Bip][Ahp(2)]AC (not fully specified (N-terminus, bridges); printed as A R Ahp Y H D G V L Bph Ahp A C, Alanine variant at position 12) [A R Ahp Y H D G V L Bph Ahp A C]	1.79
AR[Ahp(2)]YADGVL[Bip][Ahp(2)]DC (not fully specified (N-terminus, bridges); printed as A R Ahp Y A D G V L Bph Ahp D C, Alanine variant at position 5) [A R Ahp Y A D G V L Bph Ahp D C]	0.28

// below: Binding Assay (ELISA signal) requested for another binder
So what's the measured Binding Assay (ELISA signal) for this one? ARAYHDGVL[Bip][Ahp(2)]DC (not fully specified (N-terminus, bridges); printed as A R A Y H D G V L Bph Ahp D C, Alanine variant at position 3) [A R A Y H D G V L Bph Ahp D C]
0.11
